# Tested on: HCT-15 colon
# ASSAY PROCEDURE: NCI tumour cell line growth inhibition, 48 h
Here the recorded TGI is given for each entry.
PROPERTY: TGI

compound="COc1ccc(C(CC(C)=O)c2c(O)c3ccccc3oc2=O)cc1OC (centres undefined)" assayed_system="HCT-15 colon" property=TGI reported_measurement="> 100 µM"
compound=COc1ccccc1-c1cc(=O)c2c(C)ccnc2[nH]1 assayed_system="HCT-15 colon" property=TGI reported_measurement="> 100 µM"
compound=CN(C)c1nc(N)nc(CCl)n1 assayed_system="HCT-15 colon" property=TGI reported_measurement="93 µM"
compound=CCc1nnc(CC)n1N1C(=O)CCC1=O assayed_system="HCT-15 colon" property=TGI reported_measurement="> 100 µM"
compound=O=C(Cc1nc(-c2ccccc2)cc(=O)n1-c1ccccc1Cl)c1ccncc1 assayed_system="HCT-15 colon" property=TGI reported_measurement="> 100 µM"
compound=Cc1cc(C)nc(NS(=O)(=O)c2ccc(NC(=O)c3cccc4c(Nc5ccc(S(=O)(=O)Nc6nc(C)cc(C)n6)cc5)c5ccc(Cl)cc5nc34)cc2)n1 assayed_system="HCT-15 colon" property=TGI reported_measurement="> 100 µM"
compound="O=C1C=CC=C[C@@H]2C(C3OCCO3)CC[C@H]12.[C-]#[O+].[C-]#[O+].[C-]#[O+].[Fe] (some centres undefined)" assayed_system="HCT-15 colon" property=TGI reported_measurement="> 95.4 µM"
compound="CC(=O)OC1CC(OC2C(O)CC(OC3C(O)CC(OC4CCC5(C)C(CCC6C5CCC5(C)C(C7=CC(=O)OC7)C(O)CC65O)C4)OC3C)OC2C)OC(C)C1OC1OC(CO)C(O)C(O)C1O (centres undefined)" assayed_system="HCT-15 colon" property=TGI reported_measurement="1.16 µM"
compound=Clc1ccc(Nc2nnc(CNc3ccccc3)c3ccccc23)cc1 assayed_system="HCT-15 colon" property=TGI reported_measurement="9.39 µM"
compound="CC(C)(C)OC(=O)N1CC(O)O[C@H](c2ccccc2)[C@@H]1c1ccccc1 (some centres undefined)" assayed_system="HCT-15 colon" property=TGI reported_measurement="33.9 µM"
compound=Cc1cc2c(c3c1c1ccccc1n3C)C(=O)c1ccccc1C2=O assayed_system="HCT-15 colon" property=TGI reported_measurement="> 100 µM"
compound=CC(C)c1cc2c(c(O)c1O)[C@@]1(C)CCCC(C)(C)C1=C(O)C2 assayed_system="HCT-15 colon" property=TGI reported_measurement="6.77 µM"
compound=N#C/C(=C/NC(=S)NCc1ccccc1)C(N)=O assayed_system="HCT-15 colon" property=TGI reported_measurement="> 100 µM"
compound=COc1cccc(/C(COc2ccc3c(c2)oc(=O)c2ccccc23)=N\O)c1 assayed_system="HCT-15 colon" property=TGI reported_measurement="> 100 µM"
compound=COc1ccc2[nH]c3c(C)c4ccnc(NCCCN(C)CCCNc5ccc([N+](=O)[O-])c6[nH]c7ccccc7c(=O)c56)c4c(C)c3c2c1 assayed_system="HCT-15 colon" property=TGI reported_measurement="0.68 µM"
compound="COc1cc(C2CC(c3cccc(Nc4ccnc5cc(Cl)ccc45)c3)=NN2C=O)cc(OC)c1OC (centres undefined)" assayed_system="HCT-15 colon" property=TGI reported_measurement="> 100 µM"
compound=Oc1c(I)cc(I)cc1CNCCN(Cc1ccccn1)Cc1ccccn1 assayed_system="HCT-15 colon" property=TGI reported_measurement="4.17 µM"
compound=CC1=C(C(=O)CC(=O)C(=O)Nc2cccc(C)c2C)Sc2ccccc2N1 assayed_system="HCT-15 colon" property=TGI reported_measurement="> 100 µM"
compound=CCCCCCCCCCCCCCCCCCOP1(=O)OCCO1 assayed_system="HCT-15 colon" property=TGI reported_measurement="> 100 µM"
compound=CNS(=O)(=O)NNS(=O)(=O)c1cccc([N+](=O)[O-])c1 assayed_system="HCT-15 colon" property=TGI reported_measurement="> 100 µM"
compound=CC(C)(C)C(=O)C(C(=O)c1ccccc1)C(=O)C(C)(C)C assayed_system="HCT-15 colon" property=TGI reported_measurement="> 100 µM"
compound="CC(C)(C)c1ccc(S(=O)(=O)N2C(c3cccc(C4CC[C@@H](C(=O)O)N4S(=O)(=O)c4ccc(C(C)(C)C)cc4)c3)CC[C@H]2C(=O)O)cc1 (some centres undefined)" assayed_system="HCT-15 colon" property=TGI reported_measurement="> 100 µM"
compound="COc1cc2c3c(c1O)-c1c(ccc(OC)c1OC)CC3N(C)CC2 (centres undefined)" assayed_system="HCT-15 colon" property=TGI reported_measurement="> 100 µM"
compound=CC(C)(C)C1=Nc2c(Br)cc(C(C)(C)C)cc2C(C(F)(F)F)(C(F)(F)F)O1 assayed_system="HCT-15 colon" property=TGI reported_measurement="> 100 µM"
compound=CNC(=O)Oc1ccc(C(=S)Nc2ccc(Br)cc2)cc1 assayed_system="HCT-15 colon" property=TGI reported_measurement="43.1 µM"
compound=CN1CCN(CC(=O)N2CCCn3c2nc2ccccc2c3=O)CC1 assayed_system="HCT-15 colon" property=TGI reported_measurement="> 100 µM"
compound=C=CCN1CN(C2CCCCC2)CSC1=S assayed_system="HCT-15 colon" property=TGI reported_measurement="> 45.7 µM"
compound=CCN(CC)CCOCCn1c2c(c3ccccc31)CCCC2 assayed_system="HCT-15 colon" property=TGI reported_measurement="34.5 µM"
compound="C=CCCCCCCCC(O)C1C[C@H](O)C(CCCCC)O1 (some centres undefined)" assayed_system="HCT-15 colon" property=TGI reported_measurement="40 µM"
compound=CCOc1ccccc1N1C(=O)C(=O)C(c2nc3ccccc3s2)C(=O)C1=O assayed_system="HCT-15 colon" property=TGI reported_measurement="> 100 µM"
compound=COc1c2c(cc3occ(-c4ccc(CC=C(C)C)cc4)c(=O)c13)OC(C)(C)C=C2 assayed_system="HCT-15 colon" property=TGI reported_measurement="> 100 µM"
compound="O=C1C(Br)=CC2C1C1C3CCC3C2(Br)C12OCCO2 (centres undefined)" assayed_system="HCT-15 colon" property=TGI reported_measurement="3.49 µM"
compound="COc1cc2c(cc1OC)C(C#N)(Cc1ccccc1)N(C(=O)c1ccccc1)C=C2 (centres undefined)" assayed_system="HCT-15 colon" property=TGI reported_measurement="> 100 µM"
compound=Cc1nn(-c2ccccc2)c2nc3c(c(C)nn3-c3ccccc3)c(-c3ccc(C(F)(F)F)cc3)c12 assayed_system="HCT-15 colon" property=TGI reported_measurement="> 100 µM"
